Reference for the values: ChEMBL document CHEMBL5325469

tested.system: Tubulin
measurement.notes: Inhibition of tubulin polymerization (unknown origin)
Format: protein-complex assay, Homo sapiens
pIC50: −log10 of the molar value.

[
  {
    "structure.notation": "C=CN(c1cccc2ccccc12)S(=O)(=O)c1ccc(OC)cc1",
    "pIC50": 6.08
  }
]

###

System: DU-145
measurement.notes: Cytotoxicity against human DU-145 cells assessed as inhibition of cell growth incubated for 24 hrs by MTT assay
Format: functional, cell-based
condition.info: DU-145, 24 h
pIC50: −log10 of the molar value.

[
  {
    "compound": "COc1cccc2c1C(=O)c1c(O)c3c(c(O)c1C2=O)C[C@@](O)(C(=O)CO)C[C@@H]3O[C@H]1C[C@H](N)[C@H](O)[C@H](C)O1 [DOXORUBICIN]",
    "pIC50": "< 4.52"
  }
]
